Below, each of the variants is paired with its reported protein stability index value.
B1: TMEM192 (parent)
chain: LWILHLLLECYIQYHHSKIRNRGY

Variants of: B1
Assay: protein stability index of a GFP-peptide fusion (GPS, HEK-293T) (PSI 1-6); higher = more stable;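 note: lentivirally expressed fusions sorted by FACS into six bins by GFP to DsRed ratio, PSI derived from sequencing read proportions per bin multiplied by bin number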
Conditions: c terminus: a fixed tail appended
PARAMETER_MEASURED: protein stability index

> print(dat)
                    seq.text  data.value
 1  LWILHLLLEPYIQYHHSKIRNRGY        2.22
 2  LWILHLLLECYIQYHHQKIRNRGY        2.37
 3  LWILHLLLECYEQYHHSKIRNRGY        1.88
 4  HWILHLLLECYIQYHHSKIRNRGY        4.56
 5  LPILHLLLECYIQYHHSKIRNRGY        1.23
 6  LWILHLLLECYIQYHHSKIRPRGY        2.81
 7  LWILHLLLECYIQEHHSKIRNRGY        2.18
 8  LWILHLLLECYIQYHHSKIRNRIY        2.99
 9  LWILHLLLECYIQRHHSKIRNRGY        2.11
10  LWILHLDLECYIQYHHSKIRNRGY        3.52
11  LWILHLLLECYIQYHHTKIRNRGY        2.08
